CC50 by entry:
# experimentalProtocol: Cytotoxicity (CC50), cell line not stated
# Format: cell-based
# condition: CVB5

Solved entries (count: 2):
• CC[C@@H](C(=O)N[C@H](/C=C/C(=O)OCc1ccccc1)C[C@@H]1CCNC1=O)n1cccc(NC(=O)c2cc(C)on2)c1=O = > 10 µM
• C#CC[C@@H](C(=O)N[C@H](/C=C/C(=O)OCc1ccccc1)C[C@@H]1CCNC1=O)n1cccc(NC(=O)c2cc(C)on2)c1=O = > 10 µM

QUERY: Request the reported CC50 associated with CC[C@@H](C(=O)N[C@H](/C=C/C(=O)OC1CCC1)C[C@@H]1CCNC1=O)n1cccc(NC(=O)c2cc(C)on2)c1=O
RESULT: > 10 µM

###

# Test system: strains of human rhinovirus (HRV)
# experimentalProtocol: Antirhinoviral H1-HeLa cell culture assay (XTT cell protection, EC50), other HRV strains
# Format: cell-based, human rhinovirus in H1-HeLa cells
# condition: H1-HeLa, HRV-2; read-out: EC50
# Method: Antirhinoviral H1-HeLa Cell Culture Assay: In this cell protection assay, the ability of compounds to protect cells against HRV infection was measured by the XTT dye reduction method, which is described in Weislow et al., J. Natl. Cancer Inst. (1989), vol. 81, 577-586. […] Two days later, XTT/PMS was added to test plates and the amount of formazan produced was quantified spectrophotometrically at 450/650 nm. […] The therapeutic index (TI) was calculated by dividing the CC50 value by the EC50 value. […]
measurementType: EC50 (µM)
Give the value in µM but do not write µM after it.

Solved entries (count: 2):
* CCOC(=O)/C=C/[C@H](C[C@@H]1CCNC1=O)NC(=O)[C@H](Cc1ccc(F)cc1)n1cccc(NC(=O)c2cc(C)on2)c1=O [Compound 25] | 0.004
* CC[C@@H](C(=O)N[C@H](/C=C/C(=O)OC1CCC1)C[C@@H]1CCNC1=O)n1cccc(NC(=O)c2cc(C)on2)c1=O [Compound 59] | 0.049

Attention now turns to another entry.
QUERY: Request the reported EC50 associated with C#CC[C@@H](C(=O)N[C@H](/C=C/C(=O)OC(C)C)C[C@@H]1CCNC1=O)n1cccc(NC(=O)c2cc(C)on2)c1=O [Compound 50]
RESULT: 0.105

###

# Tested on: H1-HeLa cells
# experimentalProtocol: Cytotoxicity (CC50) in mock-infected H1-HeLa cells, XTT dye reduction
# Type: cell-based, human
# condition: line of HRV-19
measurementType: CC50

QUERY: Request the reported CC50 associated with Cc1cc(C(=O)Nc2cccn([C@@H](Cc3ccc(F)c(F)c3)C(=O)N[C@H](/C=C/C(=O)OC(C)(C)C)C[C@@H]3CCNC3=O)c2=O)no1
RESULT: > 10 µM

QUERY: Same again, this time with C#CC[C@@H](C(=O)N[C@H](/C=C/C(=O)OC1CCCC1)C[C@@H]1CCNC1=O)n1cccc(NC(=O)c2cc(C)on2)c1=O
RESULT: > 10 µM

QUERY: Same again, this time with C#CC[C@@H](C(=O)N[C@H](/C=C/C(=O)OC1CCC1)C[C@@H]1CCNC1=O)n1cccc(NC(=O)c2cc(C)on2)c1=O
RESULT: > 10 µM
